Field: EC50. Provide a value for each of the compounds that follow.
- target_entity: Melanocortin receptor 5 (Mus musculus, UniProt P41149)
- Sequence (P41149 whole entry): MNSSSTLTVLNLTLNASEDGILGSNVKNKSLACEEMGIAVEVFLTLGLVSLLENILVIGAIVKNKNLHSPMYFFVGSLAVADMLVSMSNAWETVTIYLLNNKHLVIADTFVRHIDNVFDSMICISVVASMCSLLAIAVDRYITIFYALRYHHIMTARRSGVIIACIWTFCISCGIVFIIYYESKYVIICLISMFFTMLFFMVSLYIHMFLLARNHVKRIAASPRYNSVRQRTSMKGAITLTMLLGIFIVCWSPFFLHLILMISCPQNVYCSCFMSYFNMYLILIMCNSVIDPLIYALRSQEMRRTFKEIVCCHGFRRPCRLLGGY
- assay_protocol: Activity at mouse MC5R expressed in HEK293 cells assessed as cAMP accumulation by CRE/beta-galactosidase reporter gene assay
Where a SMILES comes first, the peptide text is derived from it. Bridges are numbered along the chain shown (N, C = ends). Triazole bridges read from a SMILES are 1,4-linked. [ ]: non-standard residue; d: D form. Lys(N3) = [N-]=[N+]=NCCCC[C@H](N)C(=O)O; Nle = CCCC[C@H](N)C(=O)O; Pra = C#CC[C@H](N)C(=O)O
The figure you give is taken to be in nM; do not add the unit.

Reported EC50, compound CCCC[C@H](NC(C)=O)C(=O)N[C@H]1CCCCn2cc(nn2)C[C@@H](C(N)=O)NC(=O)[C@H](Cc2c[nH]c3ccccc23)NC(=O)[C@H](CCCNC(=N)N)NC(=O)[C@@H](Cc2ccccc2)NC(=O)[C@H](Cc2cnc[nH]2)NC1=O (Ac-[Nle][Lys(N3)]H[dF]RW[Pra]-NH2; triazole 2-7) : ____
1.76

Reported EC50, compound `CCCC[C@H](NC(C)=O)C(=O)N[C@H]1CCc2cn(nn2)CC[C@@H](C(N)=O)NC(=O)[C@H](Cc2c[nH]c3ccccc23)NC(=O)[C@H](CCCNC(=N)N)NC(=O)[C@@H](Cc2ccccc2)NC(=O)[C@H](Cc2cnc[nH]2)NC1=O` : ____
0.15

Reported EC50, compound `CCCCCC[C@H](NC(=O)[C@H](Cc1c[nH]c2ccccc12)NC(=O)[C@H](CCCNC(=N)N)NC(=O)[C@@H](Cc1ccccc1)NC(=O)[C@H](Cc1cnc[nH]1)NC(=O)[C@H](CN=[N+]=[N-])NC(=O)[C@H](CCCC)NC(C)=O)C(N)=O` : ____
0.13

Reported EC50, compound `CCCC[C@H](NC(C)=O)C(=O)N[C@H]1Cc2cn(nn2)CCCC[C@@H](C(N)=O)NC(=O)[C@H](Cc2c[nH]c3ccccc23)NC(=O)[C@H](CCCNC(=N)N)NC(=O)[C@@H](Cc2ccccc2)NC(=O)[C@H](Cc2cnc[nH]2)NC1=O` : ____
1.93
